# Test system: OVCAR-8 ovarian
# Assay Comment: NCI-60 one-dose screen, 48 h (100 = growth as untreated, 0 = no growth, -100 = all killed)
# Experimental Setup: 10 µM unless noted
About 83,000 compounds went through this panel and 20% of them were active in at least one assay; those are over-represented in the sample as a whole.
Provide the reported growth of each item.
Answer in %, number only, no unit symbol.

Need growth, item Brc1ccc2[nH]cc(-c3nonc3-c3c[nH]c4ccccc34)c2c1
47

Another: Cc1oc(-c2ccc(Cl)cc2)nc1/C=C/C(=O)c1ccccc1
98.7

Would you mind doing COc1ccc(-c2nc(/C=C3\SC(=NCc4ccccc4)NC3=O)c3ccccn23)cc1 as well?
-24.6

Param item: CCCC(O)Cn1ncc(C(=O)OCC)c1NC(=O)NCc1ccccc1F (stereo not drawn)
89.9

Same for COc1ccc(CC(C#N)c2cc3ccccc3[nH]2)cc1 (stereo not drawn)
90.8

Entry CC(=O)Cc1nsc(NC(=O)c2cc(-c3cc(Cl)cc(Cl)c3)oc2C)n1 please
97.8

Quick one: O=C1c2cccc(NCCN=Cc3cc(O)ccc3O)c2C(=O)c2c(NCCN=Cc3cc(O)ccc3O)cccc21
7.56

Quick one: COc1ccc(-c2nc(SCC(C)C)nc(N/N=C\c3ccc(F)cc3)c2C#N)cc1
96.3

Try the compound CNc1nc(S(=O)c2ccc(C#N)cc2)nc2ccccc12 (stereo not drawn)
87.8

Consider next the compound CCCCCCNC(=O)Oc1ccc(/C(=C(/C)Cc2ccc(OC)cc2)c2ccc(OCCCN(C)C)cc2)cc1 in the same way.
13.3

Input Cc1cc2c(O)c(-c3cccc(Cl)c3)c3sc(=O)oc3c2cc1C
41.9

Another compound to look at: O=[N+]([O-])c1ccc(N/N=C(/C(=N/Nc2ccc([N+](=O)[O-])cc2)c2ccccc2)c2ccccc2)cc1
60.4

Please answer likewise for COc1cc2c(c(OC)c1OC)-c1ccc(OC)c(=O)cc1[C@@H](NC(=O)CCl)CC2
8.53

* * *

# Test system: KM12 colon
# Assay Comment: NCI-60 one-dose screen, 48 h
# Experimental Setup: 10 µM unless noted
# Experimental: Growth inhibition of the KM12 human tumor cell line is measured as a screen for anti-cancer activity. Cells are grown in 96 well plates and exposed to the test compound for 48 hours. Compounds are tested at a single concentration, which is 10^-5 M for most compounds. The reported endpoint is percent growth (GI% or GIPRCNT), where numbers from 0 - 100% represent growth inhibition, and numbers from -100% - 0 represent cell death. For example, a value of 40 represents 60% growth inhibition. […]
The panel holds about 83,000 compounds, 20% with a hit somewhere; the sample as a whole holds those more often. Active and inactive are the calls of the source. The calls were made as follows: active = growth percent below 10; inactive = the rest.
Respond using exactly one of the listed classes: true (1) (active), false (0) (inactive)

Would you mind telling me which call this test gave O=[N+]([O-])c1ccc(-c2nc(N3CCOCC3)c3c4c(sc3n2)CCCC4)cc1 ?
false (0)

What do we get for O=C(Cn1c(=O)sc2nc3ccccc3nc21)Nc1ncc(Cc2cccc(Cl)c2Cl)s1 ?
false (0)

Repeat for the following molecule: Cc1oc(-c2ccc(Cl)cc2)nc1/C=C/C(=O)c1ccccc1
false (0)

Next record, please: N#C/C(=C\c1ccc(-c2ccc(Cl)cc2)o1)C(=O)Nc1ncc(Cc2ccc(Cl)cc2)s1
false (0)

Try this molecule next: COc1cc(CNC(=O)CCCC/C=C/C(C)C)ccc1OCc1nnc(Nc2ccc([N+](=O)[O-])cc2)o1
false (0)

Then what about the molecule CC(C)=NNc1ccccn1 ?
false (0)

Same for CC(C)OC(=O)c1ccc2[nH]c(O)c(C(=Nc3ccc(N(C)C(=O)CN4CCN(C)CC4)cc3)c3ccccc3)c2c1
true (1)

What do we get for CN1C(=O)N(C)C2Nn3c(s/c(=C\c4ccc(C(F)(F)F)cc4)c3=O)=NC21 (configuration not stated) ?
false (0)

Check O=C(Cn1c2c(c3ccccc31)CCCC2)Nc1ccc(-c2nc3ccccc3s2)cc1 too.
false (0)

// repeat for COC(=O)CNC(=O)[C@H](Cc1ccccc1)NCc1ccncc1 and report
false (0)

Follow-up item: COc1ccc2c3c([nH]c2c1)C(=O)c1nc(C)ccc1C3=O
false (0)

Thanks! And CN1CCN(Cc2ccc(NC(=O)c3cncc(C#Cc4cnc(N)c5ccccc45)c3)cc2C(F)(F)F)CC1 ?
true (1)

Where these numbers come from: PubChem BioAssay (NCI)
